# STUDY_TARGET: ABCB1 (P-glycoprotein) ATPase (Homo sapiens)
# Sequence (P08183 whole entry): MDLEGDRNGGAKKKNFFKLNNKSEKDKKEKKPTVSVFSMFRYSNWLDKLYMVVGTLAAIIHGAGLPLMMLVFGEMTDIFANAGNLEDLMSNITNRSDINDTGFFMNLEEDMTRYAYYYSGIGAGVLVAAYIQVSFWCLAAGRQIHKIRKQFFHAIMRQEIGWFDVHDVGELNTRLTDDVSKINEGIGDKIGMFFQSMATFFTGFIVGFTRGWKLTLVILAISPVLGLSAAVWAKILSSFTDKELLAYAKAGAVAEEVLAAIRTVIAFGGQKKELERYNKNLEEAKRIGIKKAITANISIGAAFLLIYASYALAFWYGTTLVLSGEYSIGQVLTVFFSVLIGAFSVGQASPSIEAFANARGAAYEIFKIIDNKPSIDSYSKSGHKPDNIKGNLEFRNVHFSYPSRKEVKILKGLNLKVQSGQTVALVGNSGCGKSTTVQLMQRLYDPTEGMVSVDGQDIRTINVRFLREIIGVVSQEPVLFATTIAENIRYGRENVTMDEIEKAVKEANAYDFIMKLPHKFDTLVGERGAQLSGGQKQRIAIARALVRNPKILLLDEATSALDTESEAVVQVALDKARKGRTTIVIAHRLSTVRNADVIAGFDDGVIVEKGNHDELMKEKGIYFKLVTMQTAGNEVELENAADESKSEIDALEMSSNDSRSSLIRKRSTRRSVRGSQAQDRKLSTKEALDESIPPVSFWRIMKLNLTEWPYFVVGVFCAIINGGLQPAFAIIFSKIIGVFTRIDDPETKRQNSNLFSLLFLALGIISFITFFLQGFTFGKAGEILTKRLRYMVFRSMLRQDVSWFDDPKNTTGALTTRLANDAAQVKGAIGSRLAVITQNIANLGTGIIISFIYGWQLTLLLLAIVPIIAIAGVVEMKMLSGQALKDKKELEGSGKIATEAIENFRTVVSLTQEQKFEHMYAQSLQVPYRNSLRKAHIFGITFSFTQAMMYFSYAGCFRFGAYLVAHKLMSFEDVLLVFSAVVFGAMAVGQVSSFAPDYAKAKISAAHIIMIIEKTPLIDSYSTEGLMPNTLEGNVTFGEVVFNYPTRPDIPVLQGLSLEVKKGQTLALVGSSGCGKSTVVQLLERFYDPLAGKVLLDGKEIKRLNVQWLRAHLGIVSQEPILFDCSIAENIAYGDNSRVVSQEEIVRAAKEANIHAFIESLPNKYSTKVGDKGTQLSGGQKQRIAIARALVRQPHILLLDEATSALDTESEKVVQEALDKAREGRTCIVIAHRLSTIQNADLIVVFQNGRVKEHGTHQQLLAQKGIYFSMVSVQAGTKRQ
# TEST_NAME: Inhibition of human ABCB1 ATPase activity expressed in Sf9 insect cell membranes assessed as reduction in verapamil-stimulated vanadate-sensitive ATPase activity at 25 to 100 uM measured after 10 mins by colorimetric method relative to control
# CONDITION_DETAILS: Sf9 insect cell membranes expressing human ABCB1, probe verapamil (ATPase stimulator)
PROPERTY_LABEL: inhibition at 10 min

INSERT INTO measurements (compound, test_value) VALUES
  ('CC(=O)O[C@]12C[C@H](C)[C@H](O)[C@@H]1/C=C(\C)CC[C@H]1[C@@H](/C=C(\C)C2=O)C1(C)C [JOLKINOL D]', '9 to 33%');
